Assign GI50 to each entry below.
- Test system: MOLT-4 leukemia
- Test: NCI tumour cell line growth inhibition, 48 h

Here is how some molecules turned out for GI50.
Smi	Result
COc1cccc(/C(C)=N/NC(=O)CSc2nc3ccccc3c(=O)n2CCc2ccc(S(N)(=O)=O)cc2)c1	6.5 µM
CCOC(=O)c1ccc2c(c1)[n+](=O)c(C(C)=O)c(C(F)(F)F)n2[O-]	1.31 µM
Cc1cc(Nc2cc(N3CCN(C)CC3)nc(Sc3ccc(NC(=O)C4CC4)cc3)n2)n[nH]1	4.21 µM
COc1ccc(/C=C\c2cc(OC)c(OC)c(OC)c2)cc1OCC(=O)Nc1ccc2nc(C)sc2c1	2.11 µM
CC(=O)c1cc(C(=O)c2ccc3c(c2)Sc2ccccc2N3)c2c(C)cccn12	0.556 µM
O=C(Nc1cc(Oc2cc(F)c(NC(=O)C3(C(=O)Nc4ccc(F)cc4)CC3)cc2F)ccn1)C1CC1	2.18 µM

Look at each molecule and report its GI50.
1. O=C(NCCNc1nccc(-c2c(-c3cccc(O)c3)nc3sccn23)n1)c1ccccc1
2. COc1cc(NCCN=C(N)NC(N)=NC(C)C)c2ncccc2c1
3. CCS(=O)(=O)c1ccc(OC)c(Nc2ncc(-c3ccccc3Cl)o2)c1
4. Cc1cc(Cl)ccc1Nc1nc(C(F)(F)F)ccc1C(=O)N/N=C/c1ccccc1Cl

Solution:
1: 13.5 µM; 2: 25 µM; 3: 14.1 µM; 4: 1.29 µM

---

- System: HCT-116 colon
- Test: NCI tumour cell line growth inhibition, 48 h
Measure Name: TGI (µM)
Give bare numbers, in µM.

Compound	Measurement Unit	TGI
COC(=O)/C=C\C(C#N)(C#N)N=Cc1sccc1C	µM	6.69
CO[C@@H]1C[C@H](OC(N)=O)[C@@H]2C=C[C@@H]3/C=C(C)/C=C/[C@@H](C)[C@H](/C(C)=C/[C@@H](C)NC(C)=O)OC(=O)/C=C/C=C(C)\C=C\[C@]3(C)[C@@H]2C1	µM	0.107
COc1ccc(C2C=C(c3ccc(Cl)cc3)N=C3SC=C(C)N32)c(Br)c1 (stereo not given)	µM	11

Please fill in: TGI reported for CCN(CC)CCCNc1[nH]ncc2c(C)c3nc4ccc(OC)cc4c3cc12 = 1.41

---

- Tested on: OVCAR-5 ovarian
- Test: NCI tumour cell line growth inhibition, 48 h
Measure Name: TGI

Here is how some molecules turned out for TGI.
Molecule	Tgt	TGI
NC1Cc2ccccc2OC1=O (stereo unspecified)	OVCAR-5 ovarian	> 100 µM
CC[N+](C)(CC)CC(C)(C)C(=O)/C=C/c1ccc(/C=C/C(=O)C(C)(C)C[N+](C)(CC)CC)cc1	OVCAR-5 ovarian	> 100 µM
NCCCCCCNCc1cccc2ccccc12	OVCAR-5 ovarian	> 100 µM
CCOC(=O)/C(=C/c1ccc(N(CCC#N)CCC#N)cc1C)NC(=O)/C=C/c1ccccc1	OVCAR-5 ovarian	> 100 µM
Nc1nc(N)c2cc(Sc3cccc(C(F)(F)F)c3)ccc2n1	OVCAR-5 ovarian	16.3 µM

Look at each molecule and report its TGI.
1. CC(C)(C)OC(=O)c1cccnc1/C=N/O
2. O=C(Nc1sccc1S(=O)(=O)c1ccccc1)c1ccccc1
3. CC1(C)OC[C@@H](O)[C@H](Br)CO1
4. CCOc1ccc(O)cc1[P+](c1ccccc1)(c1ccccc1)c1ccccc1

Solution:
> 100 µM
> 100 µM
> 100 µM
13.1 µM

Look at each molecule and report its TGI.
1. COc1ccc(Nc2nc3cc(N)cc(N)c3nc2-c2ccccc2)cc1OC
2. C=C1C(=O)O[C@H]2[C@H]1CC/C(COC(=O)NCCc1c[nH]c3ccc(Cl)cc13)=C\CC[C@@]1(C)O[C@@H]21

Solution:
1: 72.7 µM; 2: 4.19 µM

---

- Test system: MCF7 breast
- Test: NCI tumour cell line growth inhibition, 48 h; in the data active means GI50 below about 0.43 µM; inactive means the rest
Please answer using one outcome listed in active, inactive

Molecule	Tgt	Answer Label
CN(C)c1ccc(/C=c2/c3ccccc3n3c2c2cc(F)ccc2[n+]3C)cc1	MCF7 breast	inactive
CC(=O)OCCOCN1C(=O)NC(=O)/C(=C/c2cccc(OCc3ccccc3)c2)C1=O	MCF7 breast	inactive

Could you now consider this next molecule?
Exercise: Please indicate how the test categorized c1ccc([As]=[As]c2ccccc2)cc1 (stereo not drawn) .
Solution: active

---

- Test system: SF-268 CNS
- Test: NCI tumour cell line growth inhibition, 48 h
Assign TGI to each entry below.
Numbers only, in µM.

Compound	Result
Cc1ccc(O)c(C2=CC(c3cccc(Br)c3)SC(N)=N2)c1 (stereo not given)	88.9

Please fill in: TGI reported for COc1ccc(N(/C=C/C(=O)C(F)(F)F)CC(=O)c2ccc(Cl)cc2)cc1 = 34.9

---

- System: MALME-3M melanoma
- Test: NCI tumour cell line growth inhibition, 48 h
Assign TGI to each entry below.
Give bare numbers, in µM.

Smi	TGI / µM
O=C1c2ccccc2C(=O)c2sc(Nc3ccccc3Cl)nc21	28

The record that follows has no TGI shown yet.
Please fill in: TGI reported for CN1CCN(Cc2ccc3c(NNC(=O)c4ccccc4)nc4cc(F)ccc4n23)CC1 = 12.7

---

Assign TGI to each entry below.
- Tested on: HS 578T breast
- Test: NCI tumour cell line growth inhibition, 48 h
Answers are plain numbers, in µM.

Molecule	TGI, µM
CC12CCC3c4cc(Br)c(O)c(Br)c4CCC3C1CCC2O (configuration not stated)	49.4

Look at each molecule and report its TGI.
1. Cc1ccc(NCCN(C)C)c2c(=O)c3ccccc3sc12
2. O=[N+]([O-])/C(C(Cl)=C(Cl)Cl)=C(\N1CCCCC1)n1nnc2ccccc21
3. COc1ccc(C(CC(=O)c2ccccc2)C(C(=O)c2ccccc2)C(c2ccc(OC)cc2)C2C(=O)NC(=S)NC2=O)cc1 (configuration not stated)
4. CO[C@@H]1C[C@H](OC(N)=O)[C@@H]2C=C[C@@H]3/C=C(C)/C=C/[C@@H](C)[C@H](/C(C)=C/[C@@H](C)NC(C)=O)OC(=O)/C=C/C=C(C)\C=C\[C@]3(C)[C@@H]2C1
5. Cc1cnc(Nc2ccc(N3CCN(C)CC3)cc2)nc1Nc1ccc(Cl)c(NS(=O)(=O)C(C)(C)C)c1
6. Cc1c(C(N)=O)sc2c1c(=O)n(Cc1ccccc1)c1nnc(-c3ccc(Br)cc3)n21

Solution:
1: 3.76; 2: 81.8; 3: 47.9; 4: 0.0455; 5: 1.4; 6: 54.9

---

- Tested on: SF-539 CNS
- Test: NCI tumour cell line growth inhibition, 48 h
Measure Name: TGI (µM)
Numbers only, in µM.

Compound	TGI (µM)
Nc1nc(N)c2cc(Sc3cccc(C(F)(F)F)c3)ccc2n1	13.9

Look at each compound and report its TGI.
1. S=C=NCCc1ccccc1
2. Nc1c2c(nc3ccccc13)-c1ccccc1NCCC2
3. CCOC(=O)C1([Se]c2ccccc2)CCCC1=O (centres undefined)
4. O=C(C[P+](c1ccccc1)(c1ccccc1)c1ccccc1)C[P+](c1ccccc1)(c1ccccc1)c1ccccc1
5. CCOC(=O)c1cnn2c3ccccc3n(S(=O)(=O)c3ccc(OC)cc3)c12

Solution:
[0.532, 43.9, 43.6, 1.13, 0.868]

---

- Test system: EKVX NSCLC
- Test: NCI tumour cell line growth inhibition, 48 h
Measure Name: TGI

Compound	TGI
COC(=O)/C=C(\S/C=C(/c1ccccc1)N1CCn2c(C(=O)c3ccccc3)c(C(=O)OC)c(C(=O)OC)c21)C(=O)OC	> 10 µM
NC(Cc1ncccn1)C(=O)O (stereo not given)	> 100 µM
COc1ccc2c3c1OC1C34CCN(C)C(C2)C4=CC(I)C1(OC)OC (stereo not given)	33.8 µM
CCOC(=O)c1cc(C2CCN(c3ccccc3)C2=O)c(C(=O)/C=C(/C)N)[nH]1 (stereo not given)	> 100 µM
CCn1c2ccccc2c2ccc(C3C(C(=O)OC)=C(C)NC(C)=C3C(=O)OC)cc21	> 100 µM
O=S(=O)(/N=C(\NO)Nc1ccc(Cl)cc1)c1ccccc1	26.1 µM

Look at each compound and report its TGI.
1. N#Cc1c(N)nc(NCc2ccccc2)c(C#N)c1-c1ccc(Cl)cc1Cl
2. CC(=O)NNc1nc(C)c(C(=O)NNC(=O)C(=O)Nc2ccc([N+](=O)[O-])cc2C#N)s1
3. Cc1cc(Nc2cc(N3CCN(C)CC3)nc(Sc3ccc(NC(=O)C4CC4)cc3)n2)n[nH]1
4. CC1C2=C(CCCC2=O)N(c2ccc(Cl)cc2)C2=C1C(=O)CCC2
5. COc1cccc(/C(C)=N/NC(=O)CSc2nc3ccccc3c(=O)n2CCc2ccc(S(N)(=O)=O)cc2)c1
6. Cc1nc2[nH]ncn2c(=O)c1CCO
7. COc1ccc(C(=O)N/N=C/c2c(C)n(C)n(-c3ccccc3)c2=O)cc1
8. CC1(C)CC(=O)c2c(nc3c(ccc4ccccc43)c2-c2ccc(NC(=O)CCCCC(=O)Nc3ccc(-c4c5c(nc6c4ccc4ccccc46)CC(C)(C)CC5=O)cc3)cc2)C1

Solution:
["> 100 µM", "> 100 µM", "> 10 µM", "> 100 µM", "33.9 µM", "> 10 µM", "> 100 µM", "67.5 µM"]
